Molecular target: Sentrin-specific protease 6 (Homo sapiens, UniProt Q9GZR1)
Sequence (Q9GZR1 whole entry): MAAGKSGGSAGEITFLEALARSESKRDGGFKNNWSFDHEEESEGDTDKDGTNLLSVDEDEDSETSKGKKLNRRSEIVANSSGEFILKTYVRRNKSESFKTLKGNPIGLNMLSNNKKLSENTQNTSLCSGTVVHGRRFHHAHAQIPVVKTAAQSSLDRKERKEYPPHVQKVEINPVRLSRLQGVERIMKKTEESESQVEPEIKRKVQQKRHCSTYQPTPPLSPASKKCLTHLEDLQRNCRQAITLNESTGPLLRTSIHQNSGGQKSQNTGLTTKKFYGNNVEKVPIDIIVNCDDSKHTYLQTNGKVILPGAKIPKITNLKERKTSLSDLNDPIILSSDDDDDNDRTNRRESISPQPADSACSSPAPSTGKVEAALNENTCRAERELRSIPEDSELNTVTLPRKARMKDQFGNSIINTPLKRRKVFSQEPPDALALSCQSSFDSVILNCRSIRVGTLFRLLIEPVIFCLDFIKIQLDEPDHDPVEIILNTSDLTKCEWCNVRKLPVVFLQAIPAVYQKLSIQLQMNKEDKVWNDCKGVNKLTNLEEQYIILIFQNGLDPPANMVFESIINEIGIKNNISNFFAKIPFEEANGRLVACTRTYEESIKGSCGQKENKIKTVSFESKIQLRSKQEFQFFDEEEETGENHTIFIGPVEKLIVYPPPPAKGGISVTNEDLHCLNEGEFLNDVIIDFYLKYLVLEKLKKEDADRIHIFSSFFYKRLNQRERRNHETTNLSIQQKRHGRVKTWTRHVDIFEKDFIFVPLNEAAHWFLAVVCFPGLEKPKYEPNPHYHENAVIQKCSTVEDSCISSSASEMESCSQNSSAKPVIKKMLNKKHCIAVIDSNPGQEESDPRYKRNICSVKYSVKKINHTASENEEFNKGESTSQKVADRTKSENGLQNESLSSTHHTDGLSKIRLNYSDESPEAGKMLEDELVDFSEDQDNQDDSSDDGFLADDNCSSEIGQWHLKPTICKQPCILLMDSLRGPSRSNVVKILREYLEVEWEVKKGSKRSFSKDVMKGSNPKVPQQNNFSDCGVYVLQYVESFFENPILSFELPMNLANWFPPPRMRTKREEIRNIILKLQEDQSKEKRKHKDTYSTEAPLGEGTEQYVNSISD
Experiment: SAR Analysis of small molecule inhibitors of Sentrin-specific protease 6 (SENP6) using a Luminescent assay. [Related pubchem assays (depositor defined):AID2582, AID2599]
Type: functional
Calls of active or inactive are those of the source.
Labels: active, inactive

* Fc1cc(C(F)(F)F)ccc1-c1nc(/C=C/c2ccccc2)no1 | inactive
* CCc1ccc2oc(-c3ccc(NC(C)=O)cc3)nc2c1 | active
* O=C(/C=C/c1ccc(OC2CSC2)cc1)c1ccc(Cl)cc1 | inactive
* O=C(Nc1nc2ccc(NC(=O)c3n[nH]c4c3CCc3ccccc3-4)cc2s1)c1ccccc1 | inactive

---

Assay: NIH3T3 cell viability loss – ATP luminescence, mouse fibroblasts, counter-screen, dose response (AID 2010);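 also: cells exposed to compound for about 90 hours before reading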
Format: functional, cell-based
EC50 values, listed per item
observed_property: EC50

* N=C(N)Nc1nc(-c2ccccc2)c2cc(Cl)ccc2n1 | > 60 µM (not active)
* O=C(Cn1cnc([N+](=O)[O-])n1)N/N=C/c1ccc2ccccc2c1 | > 60 µM (not active)
* O=C(Nc1ncc(S(=O)(=O)c2ccc([N+](=O)[O-])cc2)s1)c1ccc2ccccc2c1 | > 60 µM (not active)
* C=CCc1cccc(/C=N/NC(=O)c2ccccc2OC)c1O | > 60 µM (not active)
* O=C(/C=C/c1ccc([N+](=O)[O-])s1)N1CCCC1 | > 60 µM (not active)
* c1ccc(Nc2cccc3c(Nc4ccccc4)cccc23)cc1 | > 60 µM (not active)

---

Biological target: Ubiquitin-conjugating enzyme E2 N (Homo sapiens);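 also: Dose-response confirmation in a TR-FRET assay detecting UBC13-driven polyubiquitin chain formation, inhibition measured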
Sequence (P61088 whole entry): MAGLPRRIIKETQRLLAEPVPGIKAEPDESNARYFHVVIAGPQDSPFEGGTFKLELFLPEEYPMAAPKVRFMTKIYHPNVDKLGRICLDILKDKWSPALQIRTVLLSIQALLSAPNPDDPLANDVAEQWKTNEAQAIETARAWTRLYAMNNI
Type: functional
Activity calls are given as the source filed them.
Labels: active, inactive

- Cn1c(=O)cc(OCCCC(=O)NCCN2CCN(c3ccccc3F)CC2)c2ccccc21: inactive
- CCOc1cccc2sc(N(CCCN(C)C)C(=O)c3ccc(S(=O)(=O)N(C)Cc4ccccc4)cc3)nc12: active
- CC[C@@H](C)[C@@H]1CN([C@@H](C)CN2CCC[C@H]2CN2C(N)=NC[C@H]2CC(C)C)C(=N)N1CCc1ccc(Cl)c(Cl)c1: inactive
- NC1=NC[C@H](Cc2ccccc2)N1CCc1cc(C(F)(F)F)cc(C(F)(F)F)c1: inactive
- Cc1ccc(OCCCC(=O)Nc2ccc(S(=O)(=O)N3CCOCC3)cc2)cc1: inactive
- CCC(C)[C@H](N)c1cn([C@@H](Cc2cc3ccccc3[nH]2)C(=O)N2CCNCC2)nn1 (stereo not given in full): inactive
- N=C(N)Nc1nc(-c2ccccc2)c2cc(Cl)ccc2n1: inactive
- COc1ccc(-c2cc(C3CCN(c4cc(Cl)nc(N)n4)CC3)[nH]n2)cc1: inactive
- c1ccc2c(CCN3CCNC[C@H]3Cc3cccc4ccccc34)cccc2c1: inactive
- c1ccc(C[C@H]2CNCCN2CCCCC2CCCCC2)cc1: inactive

---

AC50 values, listed per item
Target: Paired box protein Pax-8 (Homo sapiens, UniProt Q06710)
Sequence (Q06710 whole entry): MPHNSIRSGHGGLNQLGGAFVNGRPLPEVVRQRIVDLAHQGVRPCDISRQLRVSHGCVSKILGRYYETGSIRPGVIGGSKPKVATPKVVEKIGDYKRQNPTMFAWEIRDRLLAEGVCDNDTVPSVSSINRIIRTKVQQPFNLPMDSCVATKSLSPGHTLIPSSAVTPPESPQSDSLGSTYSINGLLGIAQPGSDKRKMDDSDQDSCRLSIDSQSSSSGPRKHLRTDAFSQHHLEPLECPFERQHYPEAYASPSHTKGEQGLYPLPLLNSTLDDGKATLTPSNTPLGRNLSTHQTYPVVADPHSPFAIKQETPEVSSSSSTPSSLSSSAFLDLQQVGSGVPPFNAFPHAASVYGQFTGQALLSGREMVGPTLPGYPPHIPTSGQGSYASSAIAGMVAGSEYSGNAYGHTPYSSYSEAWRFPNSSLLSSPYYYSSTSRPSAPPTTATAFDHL
Test: PAX8 transcriptional activity inhibition in RMG-I – RMG-I cells, luciferase, cherry-pick, dose response (AID 687027);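 also: luciferase reporter driven by Pax8 target thyroperoxidase promoter measured by SteadyGlo luminescence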
Assay type: functional, cell-based
Where a name gives a salt, the structure may show the parent alone. The source made the active and inactive calls.
observed_property: AC50

• CC12CCC3C(CCC4(O)CC(O)CCC34C=NO)C1(O)CCC2C1=COC(=O)C1 (stereo not drawn) = 1120 nM (active)
• Cn1nnnc1Sc1ncnc2scc(-c3ccccc3Cl)c12 = 2420 nM (active)
• COc1cccc2c1C(=O)c1c(O)c3c(c(O)c1C2=O)C[C@@](O)(C(C)=O)C[C@@H]3O[C@H]1C[C@H](N)[C@H](O)[C@H](C)O1 [DAUNORUBICIN HYDROCHLORIDE] = 1550 nM (active)
